# System: androgen-stimulated hair growth of flank organs
# test: Golden Syrian hamster assay (flank organ hair mass)
# Type: in vivo
# particulars: topical, 10% dose, thirteen applications; vehicle A, B or C per compound
Below, each entry is listed with its recorded % Inhibition (percent reduction of hair growth vs vehicle-treated side).

The following compounds have reported results that may help.
O=C1CC(c2ccccc2)Oc2ccccc21 (stereo not shown) ... 17 ± 10%
COc1ccc(O)c(C(C)(C)C)c1 [butylhydroxyanisole] ... 61 ± 9%
O=C1C[C@@H](c2ccc(O)cc2)Oc2cc(O)cc(O)c21 ... 40 ± 8%
Cc1cc(C(C)(C)C)c(O)c(C(C)(C)C)c1 [butylhydroxytoluene] ... 22 ± 18%
COc1ccc(-c2cc(=O)c3c(O)cc(O)cc3o2)cc1 [5,7-dihydroxy-4'-methoxyflavone] ... 62 ± 9%
CCOc1ccc2c(c1)C(C)=CC(C)(C)N2 ... 75 ± 7%

// next item, % Inhibition (percent reduction of hair growth vs vehicle-treated side) requested
Please give the measured % Inhibition (percent reduction of hair growth vs vehicle-treated side) for this compound: CCC1(c2ccccc2)C(=O)NC(=O)NC1=O [phenobarbital, reference compound]
51 ± 11%

* * *

# Tested on: androgen-stimulated hair growth of flank organs
# test: Golden Syrian hamster assay (flank organ hair mass)
# Type: in vivo
# particulars: topical, 10% dose, 10 μl once a day, thirteen applications; vehicle A, B or C per compound
Below, each entry is listed with its recorded Left(mg) (hair mass of the compound-treated flank organ).

The following compounds have reported results that may help.
COc1ccc(-c2cc(=O)c3c(O)cc(O)cc3o2)cc1 [5,7-dihydroxy-4'-methoxyflavone] ... 1.00 ± .22 mg
O=C1C[C@@H](c2ccc(O)cc2)Oc2cc(O)cc(O)c21 ... 1.42 ± .18 mg
CCC1(c2ccccc2)C(=O)NC(=O)NC1=O [phenobarbital, reference compound] ... 0.89 ± .16 mg
COc1ccc(O)c(C(C)(C)C)c1 [butylhydroxyanisole] ... 0.92 ± .24 mg
Cc1cc(C(C)(C)C)c(O)c(C(C)(C)C)c1 [butylhydroxytoluene] ... 1.74 ± .38 mg

Please give the measured Left(mg) (hair mass of the compound-treated flank organ) for this compound: O=C1CC(c2ccccc2)Oc2ccccc21 (stereo not shown)
1.91 ± .22 mg

Please give the measured Left(mg) (hair mass of the compound-treated flank organ) for this compound: `CCOc1ccc2c(c1)C(C)=CC(C)(C)N2`
0.55 ± .16 mg
